- Test system: MCF-7 human breast tumor cell line
- assay.info: Human Tumor Cell Growth Inhibition (3H-thymidine incorporation)
- Format: cell-based
- setup.conditions: MCF-7, 24 hrs
measured.property: IC50 (µM)

(P) COc1ccc(NS(=O)(=O)c2ccc(N=C3C=C(Nc4ccc(S(=O)(=O)Nc5ccc(OC)nn5)cc4)C(=O)c4ccccc43)cc2)nn1
(Q) Cc1ccnc(NS(=O)(=O)c2ccc(N=C3C=C(Nc4ccc(S(=O)(=O)Nc5nccc(C)n5)cc4)C(=O)c4ccccc43)cc2)n1
# return whichever of P and Q has the smaller IC50 Provide the label of your selected option as the answer. P

(A) Cc1cc(C)nc(NS(=O)(=O)c2ccc(N=C3C=C(Nc4ccc(S(=O)(=O)Nc5nc(C)cc(C)n5)cc4)C(=O)c4ccccc43)cc2)n1 [Compound 6c]
(B) COc1cc(NS(=O)(=O)c2ccc(N=C3C=C(Nc4ccc(S(=O)(=O)Nc5cc(OC)cc(OC)c5)cc4)C(=O)c4ccccc43)cc2)cc(OC)c1
(C) Cc1cc(C)nc(NS(=O)(=O)c2cc(N=C3C=C(Nc4ccc(C)c(S(=O)(=O)Nc5cc(C)cc(C)n5)c4)C(=O)c4ccccc43)ccc2C)c1
With regard to IC50, arrange the entries in ascending order, please. Record the ranking as a list of labels in the requested order. B, C, A

(P) COc1cnc(NS(=O)(=O)c2ccc(N=C3C=C(Nc4ccc(S(=O)(=O)Nc5ncc(OC)cn5)cc4)C(=O)c4ccccc43)cc2)nc1
(Q) Cc1cc(C)nc(NS(=O)(=O)c2ccc(N=C3C=C(Nc4ccc(S(=O)(=O)Nc5nc(C)cc(C)n5)cc4)C(=O)c4ccccc43)cc2)n1 [Compound 3c]
# return whichever of P and Q has the smaller IC50 Provide the label of your selected option as the answer. Q

(a) COc1cc(NS(=O)(=O)c2ccc(N=C3C=C(Nc4ccc(S(=O)(=O)Nc5cc(OC)nc(OC)n5)cc4)C(=O)c4ccccc43)cc2)nc(OC)n1
(b) O=C1C(Nc2ccc(S(=O)(=O)NCc3ccccn3)cc2)=CC(=Nc2ccc(S(=O)(=O)NCc3ccccn3)cc2)c2ccccc21
Could you point out whether the larger IC50 belongs to a or to b ? Provide the label of your selected option as the answer. a

---

- target: PKC isoenzyme ζ (Homo sapiens, UniProt Q05513)
- Construct: made in house; host or cells: baculovirus-insect cell expression system
- Sequence (Q05513 1-592): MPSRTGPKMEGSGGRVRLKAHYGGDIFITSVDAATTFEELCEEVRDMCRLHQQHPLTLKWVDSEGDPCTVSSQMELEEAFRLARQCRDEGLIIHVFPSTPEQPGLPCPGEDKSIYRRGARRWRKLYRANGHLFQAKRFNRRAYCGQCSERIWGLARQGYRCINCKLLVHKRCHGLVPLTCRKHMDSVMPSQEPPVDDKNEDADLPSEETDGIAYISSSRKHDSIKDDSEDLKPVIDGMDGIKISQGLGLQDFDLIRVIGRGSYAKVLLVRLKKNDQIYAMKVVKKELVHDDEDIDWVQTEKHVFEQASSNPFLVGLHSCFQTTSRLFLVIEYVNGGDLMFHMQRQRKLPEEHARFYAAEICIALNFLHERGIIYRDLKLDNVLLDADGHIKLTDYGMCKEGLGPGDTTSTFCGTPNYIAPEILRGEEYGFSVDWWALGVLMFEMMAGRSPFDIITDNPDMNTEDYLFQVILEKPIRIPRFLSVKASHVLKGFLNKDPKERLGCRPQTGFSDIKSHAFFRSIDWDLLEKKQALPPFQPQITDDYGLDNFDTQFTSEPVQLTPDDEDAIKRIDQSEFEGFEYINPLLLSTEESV
- assay.info: Protein kinase C inhibition assay, PKC isoenzyme ζ
- Type: biochemical
- setup.conditions: read-out: IC50 PKC .zeta.
pIC50: −log10 of the molar value.
measured.property: pIC50

Record excerpt, results attached:
> print(dat)
                                   compound  measured.property  observed.value
1  O=C1C(Nc2ccc(S(=O)(=O)Nc3ncccn3)cc2)=CC(=Nc2ccc(S(=O)(=O)Nc3ncccn3)cc2)c2ccccc21 [Compound 6k]              pIC50            4.46
2  Cc1ccnc(NS(=O)(=O)c2ccc(N=C3C=C(Nc4ccc(S(=O)(=O)Nc5nccc(C)n5)cc4)C(=O)c4ccccc43)cc2)n1              pIC50            4.46

(I) O=C1C(Nc2ccc(S(=O)(=O)Nc3ccc(Cl)nn3)cc2)=CC(=Nc2ccc(S(=O)(=O)Nc3ccc(Cl)nn3)cc2)c2ccccc21 [Compound 6l]
(II) O=C1C(Nc2ccc(S(=O)(=O)Nc3ncccn3)cc2)=CC(=Nc2ccc(S(=O)(=O)Nc3ncccn3)cc2)c2ccccc21 [Compound 3k]
# return whichever of I and II has the smaller pIC50 Provide the label of your selected option as the answer. II

(1) COc1cnc(NS(=O)(=O)c2ccc(N=C3C=C(Nc4ccc(S(=O)(=O)Nc5ncc(OC)cn5)cc4)C(=O)c4ccccc43)cc2)nc1
(2) COc1cc(NS(=O)(=O)c2ccc(N=C3C=C(Nc4ccc(S(=O)(=O)Nc5cc(OC)nc(OC)n5)cc4)C(=O)c4ccccc43)cc2)nc(OC)n1
(3) O=C1C(Nc2ccc(S(=O)(=O)Nc3cnc4ccccc4n3)cc2)=CC(=Nc2ccc(S(=O)(=O)Nc3cnc4ccccc4n3)cc2)c2ccccc21 [Compound 6m]
// sort entries: pIC50, high to low Record the ranking as a list of labels in the requested order. 3, 2, 1
(3: 5.05, 2: 4.55, 1: 4.33)

(A) COc1ccc(NS(=O)(=O)c2ccc(N=C3C=C(Nc4ccc(S(=O)(=O)Nc5ccc(OC)nn5)cc4)C(=O)c4ccccc43)cc2)nn1 [Compound 6j]
(B) CCCCCCCCCCCCCCCCNS(=O)(=O)c1ccc(N=C2C=C(Nc3ccc(S(=O)(=O)NCCCCCCCCCCCCCCCC)cc3)C(=O)c3ccccc32)cc1 [Compound 3o]
(C) Cc1cc(C)nc(NS(=O)(=O)c2ccc(N=C3C=C(Nc4ccc(S(=O)(=O)Nc5nc(C)cc(C)n5)cc4)C(=O)c4ccccc43)cc2)n1
// sort entries: pIC50, high to low Record the ranking as a list of labels in the requested order. B, A, C
(B: 4.59, A: 4.31, C: 3.88)

---

- target: cAMP dependent protein kinase (PKA)
- assay.info: cAMP Dependent Protein Kinase (PKA) Assay
- setup.conditions: catalytic subunit of PKA
pIC50: −log10 of the molar value.
measured.property: pIC50

> print(dat)
                                   molecule  observed.value
1  COc1cc(NS(=O)(=O)c2ccc(N=C3C=C(Nc4ccc(S(=O)(=O)Nc5cc(OC)cc(OC)c5)cc4)C(=O)c4ccccc43)cc2)cc(OC)c1            4.21

(a) Cc1cc(NS(=O)(=O)c2ccc(N=C3C=C(Nc4ccc(S(=O)(=O)Nc5cc(C)on5)cc4)C(=O)c4ccccc43)cc2)no1
(b) COc1cc(NS(=O)(=O)c2ccc(N=C3C=C(Nc4ccc(S(=O)(=O)Nc5cc(OC)nc(OC)n5)cc4)C(=O)c4ccccc43)cc2)nc(OC)n1 [Compound 6g]
Could you point out whether the larger pIC50 belongs to a or to b ? Provide the label of your selected option as the answer. b
(b: 4.33, a: 3.80)

---

Here, each record is paired with measured pIC50 data.
- target: cAMP dependent protein kinase (PKA)
- assay.info: cAMP Dependent Protein Kinase (PKA) Assay
- setup.conditions: catalytic subunit of PKA
- Method: Compounds found to be inhibitors of protein kinase C were tested for inhibitory activity against cAMP dependent protein kinase (PKA). […] The catalytic subunit of PKA (Sigma Chemical Company, St. Louis, Mo.) was mixed with buffer before addition of the inhibitor in dimethylsulfoxide (DMSO). […] Phosphorylated protein was then isolated by filtration and the radioactivity was counted by a beta scintillation counter.
pIC50: −log10 of the molar value.

Record excerpt, results attached:
> print(dat)
                                   molecule                               target  observed.value
1  O=C1C(Nc2ccc(S(=O)(=O)NCc3ccccn3)cc2)=CC(=Nc2ccc(S(=O)(=O)NCc3ccccn3)cc2)c2ccccc21 [Compound 3n]  cAMP dependent protein kinase (PKA)          < 3.82
2  COc1ccc(NS(=O)(=O)c2ccc(N=C3C=C(Nc4ccc(S(=O)(=O)Nc5ccc(OC)nn5)cc4)C(=O)c4ccccc43)cc2)nn1 [Compound 6j]  cAMP dependent protein kinase (PKA)          < 3.82
3  Cc1cc(C)nc(NS(=O)(=O)c2cc(N=C3C=C(Nc4ccc(C)c(S(=O)(=O)Nc5cc(C)cc(C)n5)c4)C(=O)c4ccccc43)ccc2C)c1  cAMP dependent protein kinase (PKA)          < 3.82
4  O=C1C(Nc2ccc(S(=O)(=O)Nc3cnc4ccccc4n3)cc2)=CC(=Nc2ccc(S(=O)(=O)Nc3cnc4ccccc4n3)cc2)c2ccccc21 [Compound 3m]  cAMP dependent protein kinase (PKA)            4.09
5  O=C1C(Nc2ccc(S(=O)(=O)Nc3ncccn3)cc2)=CC(=Nc2ccc(S(=O)(=O)Nc3ncccn3)cc2)c2ccccc21  cAMP dependent protein kinase (PKA)            3.95

I'd like to know its pIC50. The molecule in question is O=C1C(Nc2ccc(S(=O)(=O)NCCNc3ccc([N+](=O)[O-])cn3)cc2)=CC(=Nc2ccc(S(=O)(=O)NCCNc3ccc([N+](=O)[O-])cn3)cc2)c2ccccc21 < 3.82
